- PROTOCOL_SUMMARY: acute toxicity LD50
- Format: in vivo, mice
- MEASUREMENT_SETUP: mouse, in vivo, ip, daily x9 injections, mice; 95% confidence interval given; read-out: LD 50 in mg/kg/inj i.p. in mice
RECORDED_ENDPOINT: LD50 (mg/kg)
Express the result in mg/kg but write the number alone.

# return recorded LD50 for entry Cc1[nH]c(=O)[nH]c(=O)c1/C=C/C(=O)N[C@@H](CO)C[S@@+]([O-])CSCc1ccccc1
5

# return recorded LD50 for entry CSC[S@+]([O-])C[C@H](C)NC(=O)/C=C/c1c(C)[nH]c(=O)[nH]c1=O
2.33

# return recorded LD50 for entry CSC[S@+]([O-])C[C@H](CO)NC(=O)/C=C/c1c(C)[nH]c(=O)[nH]c1=O
0.26

# return recorded LD50 for entry CCCCCCCCSC[S@+]([O-])C[C@H](CO)NC(=O)/C=C/c1c(C)[nH]c(=O)[nH]c1=O
29.5

----------
- System: L1210 leukemia
- PROTOCOL_SUMMARY: in vivo antitumor assay, L1210 leukemia
- Design: species or system CDF1 mice
- MEASUREMENT_SETUP: male mice, ip daily x9, optimal dose mg/kg: sparsomycin 0.125, n-octyl 20.0, benzyl 4.0, 2a 1.7
Task for the reader: assign each of the following compounds its reported T/C (survival, treatment/control x 100%).

# return recorded T/C (survival, treatment/control x 100%) for entry CSC[S@+]([O-])C[C@H](CO)NC(=O)/C=C/c1c(C)[nH]c(=O)[nH]c1=O [Sparsomycin]
105%

# return recorded T/C (survival, treatment/control x 100%) for entry CSC[S@+]([O-])C[C@H](C)NC(=O)/C=C/c1c(C)[nH]c(=O)[nH]c1=O [2a]
248%

# return recorded T/C (survival, treatment/control x 100%) for entry CCCCCCCCSC[S@+]([O-])C[C@H](CO)NC(=O)/C=C/c1c(C)[nH]c(=O)[nH]c1=O [n-octyl-sparsomycin]
152%

# return recorded T/C (survival, treatment/control x 100%) for entry Cc1[nH]c(=O)[nH]c(=O)c1/C=C/C(=O)N[C@@H](CO)C[S@@+]([O-])CSCc1ccccc1 [benzyl-sparsomycin]
162%

----------
- Test system: ribosomes from E. coli MRE600 (peptidyl transferase activity)
- PROTOCOL_SUMMARY: puromycin reaction, E. coli ribosomes
- Assay type: biochemical
- MEASUREMENT_SETUP: 50% inhibition relative to control; read-out: ED50 Puromycin reaction E. coli
Task for the reader: assign each of the following molecules its reported pIC50.
Note: pIC50 values are expressed as the negative base-10 logarithm of concentration in M.

# return recorded pIC50 for entry Cc1[nH]c(=O)[nH]c(=O)c1/C=C/C(=O)N[C@@H](CO)C[S@@+]([O-])CSCc1ccccc1
6.89

# return recorded pIC50 for entry CSC[S@+]([O-])C[C@H](CO)NC(=O)/C=C/c1c(C)[nH]c(=O)[nH]c1=O
7.00

# return recorded pIC50 for entry CSC[S@+]([O-])C[C@H](C)NC(=O)/C=C/c1c(C)[nH]c(=O)[nH]c1=O
6.05

# return recorded pIC50 for entry CSC[S@@+]([O-])C[C@H](C)NC(=O)/C=C/c1c(C)[nH]c(=O)[nH]c1=O
5.57

# return recorded pIC50 for entry CCCCCCCCSC[S@+]([O-])C[C@H](CO)NC(=O)/C=C/c1c(C)[nH]c(=O)[nH]c1=O
6.60
